Reference source: the Deep4Chem optical property database

measurement.protocol: photoluminescence quantum yield (fraction); solvent given as SMILES
measurement.context: in CCCO
Quick reference for photoluminescence quantum yield among some molecules
Would you mind answering with just the numeric figure?

# input.smiles, photoluminescence quantum yield
data = [
    ("N#Cc1ccc(C[C@H](N)C(=O)O)cc1", 0.074),
    ("CCOC(=O)c1ccc2c(c1)[nH]c1c3ccc(C(=O)OCC)cc3[nH]c21", 0.57),
    ("COc1ccc(C#Cc2ccc(C#N)cc2)cc1", 0.13),
    ("N#Cc1ccc(/C=C2\\OC(=O)c3cc(N)ccc32)cc1", 0.14),
    ("CN(C)c1ccc(/C=C/C=C/c2nc3ccccc3o2)cc1", 0.0045),
]

Entry CCOC(=O)c1ccc2c(c1)sc1c3ccc(C(=O)OCC)cc3sc21 ; photoluminescence quantum yield = 0.083

Entry CCOC(=O)c1ccc2c(c1)sc1c3ccc(C(=O)OCC)cc3n(C)c21 ; photoluminescence quantum yield = 0.65

Entry COCCOCCOCCOc1ccc(OCCOCCOCCOC)c(C=O)c1 ; photoluminescence quantum yield = 0.23

Entry CCN(CC)c1ccc2ccc(=O)oc2c1 ; photoluminescence quantum yield = 0.52

Entry c1ccc(-c2cc(-c3ccc4ccc5c(-c6ccnc(-c7ccccn7)c6)ccc6ccc3c4c65)ccn2)nc1 ; photoluminescence quantum yield = 0.38

Entry COCCOCCOCCOCCOc1cc(C=O)c(OCCOCCOCCOCCOC)cc1C=O ; photoluminescence quantum yield = 0.14

---

measurement.protocol: photoluminescence quantum yield (fraction); solvent given as SMILES
measurement.context: in C1COCCO1
Quick rule: photoluminescence quantum yield of at least 0.6 means yes (1), below that means no (0).

# molecule, class
data = [
    ("COC(=O)c1ccc(/C=C2\\N=C(c3ccc(OC)c(OC)c3)OC2=O)cc1", "no (0)"),
    ("CCN(CC)c1ccc(/C=C/C2=[O+][B-](F)(F)Oc3c2c(=O)oc2cc(N(CC)CC)ccc32)cc1", "yes (1)"),
    ("c1ccc(-c2nc(-c3ccc(-c4ccc(-c5ccc(-c6nc(-c7ccccc7)c(-c7ccccc7)o6)cc5)cc4)cc3)oc2-c2ccccc2)cc1", "yes (1)"),
    ("COC(=O)c1nc2c(N)nc(N(C)C)nc2n1Cc1ccccc1", "yes (1)"),
    ("CN(C)c1ccc2nc(/C=C/c3cc4c5c(c3)CCCN5CCC4)c(=O)oc2c1", "no (0)"),
]

*Q* Does photoluminescence quantum yield meet or surpass 0.6 for [C-]#[N+]c1ccc(-c2ccc(NC)cc2)cc1 ?
*A* yes (1)

*Q* Does photoluminescence quantum yield meet or surpass 0.6 for N#Cc1nc2cnc(N)nc2n1Cc1ccccc1 ?
*A* no (0)

*Q* Does photoluminescence quantum yield meet or surpass 0.6 for CCC12C(=C3C(=C4c5ccccc5S(=O)(=O)C41CC)C(F)(F)C(F)(F)C3(F)F)c1ccccc1S2(=O)=O (centres undefined) ?
*A* no (0)

---

measurement.protocol: photoluminescence quantum yield (fraction); solvent given as SMILES
measurement.context: in CC#N
Quick rule: photoluminescence quantum yield of at least 0.4 means label 1, below that means label 0.

Record excerpt, results attached:
# compound, class
measured = [
    ("COc1cccc(-c2nc3c([nH]2)C2=CC(=O)S[C@]2(C)[C@@]2(C)SC(=O)C=C32)c1OC", "label 0"),
    ("CC(=O)Nc1ccc2ccc3cccc4ccc1c2c34", "label 0"),
]

*Q* Does photoluminescence quantum yield meet or surpass 0.4 for c1ccc2c(c1)CCc1ccccc1N2 ?
*A* label 0

*Q* Does photoluminescence quantum yield meet or surpass 0.4 for CCCC(=O)c1c2c(c(C(=O)CCC)c3c1OC(CC(=O)OC)(C(=O)O)O3)OCO2 ?
*A* label 0

*Q* Does photoluminescence quantum yield meet or surpass 0.4 for F[B-]1(F)n2c(c3cccc4cccc2c43)=Nc2cccc(Cl)[n+]21 ?
*A* label 1

*Q* Does photoluminescence quantum yield meet or surpass 0.4 for NS(=O)(=O)c1ccc(N2N=C(c3ccc(O)cc3)CC2c2ccc(F)cc2)cc1 (stereo unspecified) ?
*A* label 1

*Q* Does photoluminescence quantum yield meet or surpass 0.4 for COc1ccc(-c2cc(-c3ccc(C)cc3)nc3c(C#N)c(N4CCCC4)nc(N)c23)cc1 ?
*A* label 0

*Q* Does photoluminescence quantum yield meet or surpass 0.4 for COc1ccc(C#Cc2ccccc2C#Cc2ccc(OC)cc2)cc1 ?
*A* label 1

*Q* Does photoluminescence quantum yield meet or surpass 0.4 for F[B-]1(F)n2c(NCc3ccccc3)ccc2C(c2c(Cl)cccc2Cl)=C2C=CC(NCc3ccccc3)=[N+]21 ?
*A* label 1

*Q* Does photoluminescence quantum yield meet or surpass 0.4 for COc1ccc(-c2nc(C(C)=O)c(C)o2)cc1 ?
*A* label 0

*Q* Does photoluminescence quantum yield meet or surpass 0.4 for CN(C)c1ccc(C(=O)Nc2ccccc2)cc1 ?
*A* label 0

---

Quick reference for photoluminescence quantum yield among some compounds
measurement.protocol: photoluminescence quantum yield (fraction); solvent given as SMILES
measurement.context: in ClC(Cl)Cl
Would you mind answering with just the numeric figure?

Some solved entries appear below for comparison.
# input.smiles, value.type, reported.result
records = [
    ("Oc1ccc(C2=[N+]3C(=C(c4ccccc4)c4cccn4[B-]3(F)F)C=C2)cc1", "photoluminescence quantum yield", 0.06),
    ("O=C1c2cccc3c(-n4c5ccccc5c5ccccc54)ccc(c23)C(=O)N1c1ccccc1", "photoluminescence quantum yield", 0.198),
    ("FC(F)(F)c1ccc2oc3nc4oc5ccc(N(c6ccccc6)c6ccccc6)cc5c4cc3c2c1", "photoluminescence quantum yield", 0.099),
    ("CN(c1ccccc1)c1ccc(/C=C2\\C(=O)c3ccccc3S2(=O)=O)cc1", "photoluminescence quantum yield", 0.008),
]

Entry N#CC1=CC(c2ccccc2)=CC(C#N)=P1(c1ccccc1)c1ccccc1 ; photoluminescence quantum yield = 0.75

---

measurement.protocol: photoluminescence quantum yield (fraction); solvent given as SMILES
measurement.context: in ClCCl
Quick reference for photoluminescence quantum yield among some molecules

Entry CCN(CC)c1ccc2cc(C#N)/c(=N\C(=O)C(C)C)oc2c1 ; photoluminescence quantum yield = 0.83

Entry CCN(CC)c1ccc2cc(C#N)c(=O)oc2c1 ; photoluminescence quantum yield = 0.82

Entry CN(C)c1ccc(C2=[N+]3C(=Nc4c5ccccc5c(-c5ccc(N(C)C)cc5)n4[B-]3(F)F)c3ccccc32)cc1 ; photoluminescence quantum yield = 0.01

Entry CCCCCCCCCCCCCCCCOc1cc(C#Cc2ccc3ccccc3c2)c(OCCCCCCCCCCCCCCCC)cc1C#Cc1ccc(C=C(C#N)C#N)cc1 ; photoluminescence quantum yield = 0.19

Entry COc1cc(/C=C/c2nc(N3CCOCC3)c3c([n+]2[O-])CCCC3)cc(OC)c1OC ; photoluminescence quantum yield = 0.23

Entry CCCCCC(=O)c1cccc2sc3c(c12)P(=O)(c1ccccc1)c1ccccc1-3 (stereo not drawn) ; photoluminescence quantum yield = 0.13

---

Quick reference for photoluminescence quantum yield among some compounds
measurement.protocol: photoluminescence quantum yield (fraction); solvent given as SMILES
measurement.context: in CCCCCCCCO
Would you mind answering with just the numeric figure?

Some solved entries appear below for comparison.
# input.smiles, photoluminescence quantum yield
measured = [
    ("CCCCCCCCCCCCCCCCOc1cc(C#Cc2ccc3ccccc3c2-c2c(C#Cc3cc(OCCCCCCCCCCCCCCCC)c(C#Cc4ccc(C=C(C#N)C#N)cc4)cc3OCCCCCCCCCCCCCCCC)ccc3ccccc23)c(OCCCCCCCCCCCCCCCC)cc1C#Cc1ccc(C=C(C#N)C#N)cc1", 0.52),
    ("NNC(=O)NNN1C(=O)c2cc(S(=O)(=O)[O-])cc3c(N)c(S(=O)(=O)[O-])cc(c23)C1=O", 0.75),
    ("CCCCCCCCCCCCCCCCOc1cc(C#Cc2ccc3ccccc3c2)c(OCCCCCCCCCCCCCCCC)cc1C#Cc1ccc(C=C(C#N)C#N)cc1", 0.35),
]

As a next step, examine the compound that follows.
Entry COc1ncccc1B(O)O ; photoluminescence quantum yield = 0.317

---

measurement.protocol: photoluminescence quantum yield (fraction); solvent given as SMILES
measurement.context: in CCCCCC
value.type: photoluminescence quantum yield
Would you mind answering with just the numeric figure?

Some solved entries appear below for comparison.
# input.smiles, photoluminescence quantum yield
data = [
    ("COCCN1C(=O)/C(=C/c2cccc(N(C)C)c2)N=C1C", 0.45),
    ("CCC1(CC)c2cc(/C=C/c3ccc(/C=C/c4ccc5c(c4)C(CC)(CC)c4cc(N6c7ccccc7Sc7ccccc76)ccc4-5)cc3)ccc2-c2ccc(N3c4ccccc4Sc4ccccc43)cc21", 0.72),
    ("O=C1c2cccc3c(NCc4ccccn4)c4ccccc4c(c23)C(=O)N1Cc1ccccn1", 0.04),
    ("c1ccc(-c2ccc(-c3ccc(-n4c5ccccc5c5ccccc54)cc3)c3nsnc23)cc1", 0.697),
    ("CCCCCCCCCCCCCCCCOc1cc(C#Cc2ccc3ccccc3c2-c2c(C#Cc3cc(OCCCCCCCCCCCCCCCC)c(C#Cc4ccc(C=C(C#N)C#N)cc4)cc3OCCCCCCCCCCCCCCCC)ccc3ccccc23)c(OCCCCCCCCCCCCCCCC)cc1C#Cc1ccc(C=C(C#N)C#N)cc1", 0.98),
    ("CC1=N/C(=C\\c2cc(C#N)cc(N(C)C)c2)C(=O)N1C", 0.45),
]

As a next step, examine the compound that follows.
Entry CCc1c(C)c2n(c1C)[B-](F)(F)[N+]1=C(NCc3ccc(OC)cc3)C(SC#N)=CC1=C2C ; photoluminescence quantum yield = 0.91
